test: Bioavailability in marmoset at 1 mg/kg, iv; assay type: ADME, organism-based, Callithrix jacchus; settings: in vivo
OBSERVED PROPERTY: bioavailability (%)
Please reply with the bare figure in % and do not write the unit itself.

Give the measured bioavailability of CC(=O)N1CCN([C@H]2CCN(C(=O)N(C)[C@H](C)c3cc(C(F)(F)F)cc(C(F)(F)F)c3)[C@@H](c3ccc(F)cc3C)C2)CC1 .
14

---

molecular target: Substance-P receptor (Homo sapiens, UniProt P25103)
Sequence (P25103 whole entry): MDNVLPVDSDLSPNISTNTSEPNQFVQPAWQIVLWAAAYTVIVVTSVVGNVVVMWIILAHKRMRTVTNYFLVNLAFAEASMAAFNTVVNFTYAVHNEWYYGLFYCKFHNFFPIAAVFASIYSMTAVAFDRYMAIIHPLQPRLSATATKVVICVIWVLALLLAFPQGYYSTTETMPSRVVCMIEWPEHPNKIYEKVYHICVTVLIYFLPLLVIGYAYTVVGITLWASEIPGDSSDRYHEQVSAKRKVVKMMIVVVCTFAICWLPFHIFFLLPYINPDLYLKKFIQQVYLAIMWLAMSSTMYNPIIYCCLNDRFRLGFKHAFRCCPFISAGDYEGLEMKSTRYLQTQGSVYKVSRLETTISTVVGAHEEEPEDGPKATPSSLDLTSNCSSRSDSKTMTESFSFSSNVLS
OBSERVED PROPERTY: Ki
Please answer using a numeric value trailed by its unit.

What value of Ki has been recorded for this entry: Cc1cc(F)ccc1[C@H]1C[C@H](N2CCCC2)CCN1C(=O)N(C)[C@H](C)c1cc(C(F)(F)F)cc(C(F)(F)F)c1
0.2 nM
